# systemUnderTest: protein kinases (human kinome) (Homo sapiens)
# Format: cell-based
# testParameters: experiment wp016; direction of change down
Is logFC CDK2 (P24941-1) at least -0.5? Then y. If not, n.

Kindly determine if logFC CDK2 (P24941-1) recorded for CC(C)S(=O)(=O)c1ccccc1Nc1nc(Nc2ccc(N3CCN(CCOCCOCCNC(=O)CNc4cccc5c4C(=O)N(C4CCC(=O)NC4=O)C5=O)CC3)cc2)ncc1Cl (stereo not drawn) is above or exactly -0.5.
n

Is the recorded value of logFC CDK2 (P24941-1) equal to or greater than -0.5 for this molecule? CC(C)S(=O)(=O)c1ccccc1Nc1nc(Nc2ccc(N3CCN(CCOCCOCCOCCNC(=O)CNc4ccc5c(c4)C(=O)N(C4CCC(=O)NC4=O)C5=O)CC3)cc2)ncc1Cl (stereo not drawn)
n

Is reported logFC CDK2 (P24941-1) greater than or equal to -0.5 here: CC(C)S(=O)(=O)c1ccccc1Nc1nc(Nc2ccc(N3CCN(CCOCCOCCOCCNC(=O)CNc4cccc5c4C(=O)N(C4CCC(=O)NC4=O)C5=O)CC3)cc2)ncc1Cl (stereo not drawn)
y

Identify whether the reported logFC CDK2 (P24941-1) of the following molecule is -0.5 or greater: CC(C)S(=O)(=O)c1ccccc1Nc1nc(Nc2ccc(N3CCN(CCOCCOCCNC(=O)CNc4ccc5c(c4)C(=O)N(C4CCC(=O)NC4=O)C5=O)CC3)cc2)ncc1Cl (stereo not drawn)
n

Determine whether this molecule has logFC CDK2 (P24941-1) no lower than -0.5: CC(C)S(=O)(=O)c1ccccc1Nc1nc(Nc2ccc(N3CCN(CCOCCNC(=O)CNc4ccc5c(c4)C(=O)N(C4CCC(=O)NC4=O)C5=O)CC3)cc2)ncc1Cl (stereo not drawn)
n
